Listed here: items and their measured GI50.
- System: RXF 393
- Protocol: NCI tumour cell line growth inhibition, 48 h
Activity calls are given as the source filed them. Cut-off read from the data, not from the text of the source: active = GI50 up to about 1.1 µM and inactive = higher.
Readout label: GI50

>>> result("CSc1nc(NC(=O)O)c(N(C(C)=O)C(=O)O)c(=O)n1C")
"> 100 µM (inactive)"
>>> result("CC1CCC2(CC1)NC1=C(CC(C)CC1)C1=C2CC(C)CC1 (stereo not drawn)")
"15.8 µM (inactive)"
>>> result("NCCCNC1(c2cc3ccccc3s2)CCCCC1")
"4.17 µM (inactive)"

----------
- Tested on: SN12C
- Protocol: NCI tumour cell line growth inhibition, 48 h
Calls of active or inactive are those of the source. Cut-off read from the data, not from the text of the source: active = GI50 up to about 1.1 µM and inactive = higher.
Readout label: GI50

>>> result("COC(=O)Cc1cc(O)c(C/C=C(\\C)CC/C=C(\\C)C(O)C(=O)C=C(C)C)cc1O (stereo not drawn)")
"22.4 µM (inactive)"
>>> result("CC1(C)CC23C4COC(=O)C2CCC1C3CC4=O (stereo not drawn)")
"15.8 µM (inactive)"
>>> result("C[N+](C)(N)c1nc(N)c(C#N)c(C#N)c1C#N")
"> 10 µM (inactive)"
